MTT Assay MT2/293 % Viability ± SEM overview
Test system: MT2/293
Test: MTT cytotoxicity assay, MT2/293 cells
Assay type: cell-based
Conditions: percentage of untreated control cells
Experimental: This assay evaluates the cytotoxic effects of the novel isoquinolone compounds based on the cellular viability under chronic treatments. Viable cells but not dead cells can turn the substrate into a colored product, which yields higher absorbance. […] Cells were seeded into clear 96-well plate at an appropriate density in 100 μl growth medium and were allowed to grow overnight. […] Each condition was performed in triplicate in every experiment and the results were expressed as % of blank control±SD.

SMILES DATA: COc1cccc(COc2c(OC)ccc3c(=O)n(C)ccc23)c1
TESTED SYSTEM: MT2/293
UNIT ANNOTATION: %
MTT Assay MT2/293 % Viability ± SEM: 46.8
//
SMILES DATA: COc1cc(COc2cc3ccn(C)c(=O)c3cc2OC)cc(OC)c1
TESTED SYSTEM: MT2/293
UNIT ANNOTATION: %
MTT Assay MT2/293 % Viability ± SEM: 56.3
//
SMILES DATA: COc1cc2ccn(C)c(=O)c2cc1OCc1ccc(C(C)(C)C)cc1
TESTED SYSTEM: MT2/293
UNIT ANNOTATION: %
MTT Assay MT2/293 % Viability ± SEM: 24.7
//
SMILES DATA: COc1cc(COc2cc3c(=O)n(C)ccc3cc2OC)cc(OC)c1
TESTED SYSTEM: MT2/293
UNIT ANNOTATION: %
MTT Assay MT2/293 % Viability ± SEM: 46.2
//
SMILES DATA: COc1cccc(COc2cc3c(=O)n(C)ccc3cc2OC)c1
TESTED SYSTEM: MT2/293
UNIT ANNOTATION: %
MTT Assay MT2/293 % Viability ± SEM: 90.5
